- MEASUREMENT DESCRIPTION: AUC in rat at 5 mg/kg, po measured upto 10 hrs
- Type: ADME, organism-based
- Design: time < 10 hrs, dose 5 mg/kg, route po
- CONDITION CONTEXT: in vivo

| MOLECULE | AUC at 10 h (ng·h/mL) |
| --- | --- |
| COc1ccc(C(=O)C2CCN(C(=O)c3ccc(C(=O)N[C@H]4CCN(Cc5ccc(C#N)cc5)C[C@@H]4F)cn3)CC2)cc1 (relative stereo) | 2350 |

###

- MEASUREMENT DESCRIPTION: Microsomal stability in rat liver microsome assessed as half life
- Type: ADME
- CONDITION CONTEXT: liver microsomes

| MOLECULE | half-life / min |
| --- | --- |
| COc1ccc(C(=O)C2CCN(C(=O)c3cc(C(F)(F)F)c(C(=O)NC4CCN(Cc5ccc(C#N)cc5)CC4)cn3)CC2)cc1 | 44 |
| COc1ccc(C(=O)C2CCN(C(=O)c3ccc(C(=O)N[C@@H]4CCN(Cc5ccc(C#N)cc5)C[C@@H]4C)cn3)CC2)cc1 | 9 |
| COc1ccc(C(=O)C2CCN(C(=O)c3cc(C)c(C(=O)NC4CCN(Cc5ccc(OC)c(F)c5)CC4)cn3)CC2)cc1 | 54 |
| COc1ccc(C(=O)C2CCN(C(=O)c3cc(C)c(C(=O)NC4CCN(Cc5ccc(C#N)cc5)CC4)cn3)CC2)cc1 | 42 |
| COc1ccc(C(=O)C2CCN(C(=O)c3ccc(C(=O)N[C@@H]4CCN(Cc5ccc(C#N)cc5)C[C@@H]4F)cn3)CC2)cc1 | 297 |
| N#Cc1ccc(CN2CC[C@H](NC(=O)c3ccc(C(=O)N4CCC(C(=O)c5ccc(-n6cccn6)cc5)CC4)nc3)[C@@H](F)C2)cc1 | 105 |
| COc1ccc(C(=O)C2CCN(C(=O)c3ccc(C(=O)N[C@H]4CCN(Cc5ccc(C#N)cc5)C[C@@H]4F)cn3)CC2)cc1 (relative stereo) | 88 |
